experiment: logP by HPLC on reversed phase columns (EEC directive 79/831 Annex V.A8); assay type: physicochemical; conditions: reversed phase HPLC columns; method [a]: LC-MS at pH 2.7, 0.1% formic acid in water / acetonitrile; amines of formula (III-a), Table 2; read-out: logP
measurementType: chromatographic logP

INSERT INTO measurements (compound, recordedmeasurement) VALUES
  ('CC1c2cccc(N)c2CC12CCCC2 (stereo not shown) [Example III-a-7]', 2.39);

---

test system: Botrytis cinerea; experiment: In vivo preventive test on Botrytis cinerea (grey mould); conditions: 500 ppm, gherkin plants sprayed 24 h before contamination, graded 4 to 5 days after contamination
measurementType: Eff. % (%)

INSERT INTO measurements (compound, unitssymbol, recordedmeasurement) VALUES
  ('CC(C)C1Cc2cccc(NC(=O)c3cn(C)nc3C(F)F)c2C1 (stereo not shown)', '%', 85),
  ('Cc1nn(C)c(F)c1C(=O)Nc1cccc2c1C(C)C(C)C2(C)C (stereo not shown)', '%', 100),
  ('CC1c2c(NC(=O)c3cn(C)nc3C(F)F)cccc2C(C)(C)C1C (stereo not shown)', '%', 100),
  ('CC1Cc2c(NC(=O)c3cnn(C)c3C(F)(F)F)cccc2C1(C)C (stereo not shown)', '%', 94),
  ('CC1c2cccc(NC(=O)c3cn(C)nc3C(F)F)c2CC1(C)C (stereo not shown)', '%', 88),
  ('CC1Cc2c(NC(=O)c3cn(C)nc3C(F)F)cccc2C1(C)C (stereo not shown)', '%', 95),
  ('Cc1nn(C)c(C)c1C(=O)Nc1cccc2c1C(C)C(C)C2(C)C (stereo not shown)', '%', 100);
